Target: human MCH-1R (Homo sapiens)
Sequence (Q99705 whole entry): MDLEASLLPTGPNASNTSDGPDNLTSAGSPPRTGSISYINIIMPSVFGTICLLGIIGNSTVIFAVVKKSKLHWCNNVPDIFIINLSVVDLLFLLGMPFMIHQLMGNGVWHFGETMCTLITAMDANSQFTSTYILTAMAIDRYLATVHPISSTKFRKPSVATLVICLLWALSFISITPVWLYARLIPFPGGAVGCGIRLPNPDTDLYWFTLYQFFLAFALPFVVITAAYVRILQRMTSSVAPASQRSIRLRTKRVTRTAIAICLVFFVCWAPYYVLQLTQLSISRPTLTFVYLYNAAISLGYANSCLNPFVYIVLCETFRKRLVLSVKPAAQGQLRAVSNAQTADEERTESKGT
# note: exactly 2 nM is not below, so it is n; use y for IC50 strictly under it

A selection of reference data follows.
# compound, target under test, cat
data = [
    ("Cn1cc2c(cc1=O)C1(CCN(Cc3ccc(/C(=N/OCC#N)c4ccc(F)c(F)c4)nc3)CC1)OC2 [Example 2-10-2]", "human MCH-1R (Homo sapiens)", "n"),
    ("CCO/N=C(\\c1ccc(F)c(F)c1)c1ncc(CN2CCC3(CC2)OCc2ccncc23)cn1 [Example 1-3-2]", "human MCH-1R (Homo sapiens)", "n"),
    ("Cn1cc2c(cc1=O)C1(CCN(Cc3ccc(/C(=N/OCF)c4ccc(F)c(F)c4)nc3)CC1)OC2 [Example 3-1-15]", "human MCH-1R (Homo sapiens)", "n"),
    ("CC(c1ccc(/C(=N/OCCF)c2ccc(F)c(F)c2)nc1)N1CCC2(CC1)OCc1ccncc12 (single isomer, unassigned) [Example 2-1-3]", "human MCH-1R (Homo sapiens)", "y"),
    ("CC(c1ccc(/C(=N/OCC(C)(C)O)c2ccc(F)c(F)c2)nc1)N1CCC2(CC1)OCc1ccncc12 (single isomer, unassigned) [Example 3-1-13]", "human MCH-1R (Homo sapiens)", "n"),
    ("CN(C)C(=O)CO/N=C(/c1ccc(CN2CCC3(CC2)OCc2cc(F)ncc23)cc1)c1ccc(F)c(F)c1 [Example 2-6]", "human MCH-1R (Homo sapiens)", "y"),
]

Problem: # check: IC50 < 2 nM for FCCO/N=C(/c1ccc(CN2CCC3(CC2)OCc2ccncc23)cc1)c1ccc(F)c(F)c1 [Example 2-1-2]
Solution: y

Problem: # check: IC50 < 2 nM for CCO/N=C(\c1ccc(F)c(F)c1)c1ccc(CN2CCC3(CC2)OCc2cc[n+]([O-])cc23)cn1 [Example 3-1-11]
Solution: n
